- System: UO-31 renal
- Run description: NCI tumour cell line growth inhibition, 48 h
Measured metric: TGI

1. CCOC(=O)C(NC(=O)c1ccc(N=NN(C)C)cc1)C(C)C (stereo not given) : > 100 µM
2. O=P(O)(O)C(O)(Cn1ccnc1)P(=O)(O)O : > 100 µM
3. COC(=O)C1=C(C)N2[C@H](C(=O)O)CS[C@@]2(C)[C@H](C(=O)OC)[C@H]1c1cccc([N+](=O)[O-])c1 : > 100 µM
4. CCOC1NC(=O)c2ccccc21 (stereo not given) : > 100 µM
5. CCNC(=S)N/N=C/c1ccccn1 : 23.6 µM
6. OCC1OC(O[C@H]2CN3[C@H](O)[C@@H](O)[C@H](O)[C@H]3C2O)C(O)C(O)C1O (stereo not given in full) : > 100 µM
7. CCn1c(-c2nonc2N)nc2ccc(F)cc21 : > 25 µM
8. COC(=O)c1c(O)ccc2[nH]c(C)c(C#N)c12 : > 100 µM
9. NCCN1CCN(c2nccc(-c3ccc4ccccc4c3)n2)CC1 : 2.96 µM
10. CC(O)CN1C(=O)NC(Cc2ccccc2)C1=O (stereo not given) : > 100 µM
11. NC1=NC(=O)C(CC(=O)Nc2ccc([N+](=O)[O-])cc2[N+](=O)[O-])S1 (stereo not given) : > 100 µM
12. C/C(=N\Nc1nc2ccccc2s1)c1cccnn1 : 71.2 µM
13. N/C(CSCCSC/C(N)=N/O)=N\O : > 100 µM
14. c1ccc2c(c1)N=C(c1cccc3ccccc13)CC(c1cccc3ccccc13)S2 (stereo not given) : 23.6 µM
15. Cn1c(N)nc2c(nc(OCc3ccccc3)n2C2OC(CO)C(O)C2O)c1=O (stereo not given) : > 100 µM
16. CCCS(=O)(=O)c1nc(NC2CC2)cc(-c2ccc3c(ccn3C3CC(C)(C)NC(C)(C)C3)c2)n1 : 3.16 µM
17. CCCCCC(=O)Oc1ccc(/C(=C(\C)c2ccc(OC)cc2)c2ccc(OCCN3CCCCC3)cc2)cc1 : 14.4 µM
18. Nc1nc(Nc2ccc(OCc3cccc(F)c3)cc2)c2c(n1)[nH]c1ccc(O)cc12 : 4.12 µM
19. COC(=O)NC/C=C\c1nc(CC/C=C\C(=O)OC2CC3CC(=O)O[C@@H](/C=C/CC(C)C)C[C@@H]4CCC(C)C(C[C@@H](OC)CC(C2)O3)O4)co1 (stereo not given in full) : 74.7 µM
20. CN(C)C(=S)/N=c1\ss/c(=N\S(=O)(=O)c2ccccc2)n1-c1ccccc1 : > 100 µM
21. COC(=O)c1sc2ncc3c(c2c1N)CC(C)CC3 (stereo not given) : > 100 µM
22. COc1cc(/C=C2\CC3C4CC=C5CC(N6CCCC6)CC[C@]5(C)C4CC[C@]3(C)C2OC(C)=O)ccc1OCCN1CCCC1 (stereo not given in full) : 3.35 µM
23. CC(=O)n1c(-c2ccc(Cl)cc2)nc2c(c1=O)C(c1ccc(Cl)cc1)c1sc3c(Cl)cccc3c1O2 (stereo not given) : 2.2 µM
24. COn1cc(CO)c2ccccc21 : > 82 µM
25. COc1cc2nc(-c3c(F)cccc3F)n(Cc3c(F)cccc3F)c2cc1Cc1c(F)cccc1F : > 100 µM
26. O=C(Nc1cc(-c2ccccc2)[nH]n1)c1ccc(Cl)cc1 : > 100 µM
27. CC1(C)OC(CCO)CN1C(=O)OCc1ccccc1 (stereo not given) : > 100 µM
28. O=c1c2cc3c(=O)n(CCc4ccccc4CO)c(=O)c3cc2c(=O)n1CCc1ccccc1CO : > 100 µM
29. Oc1c(Br)cc(CN(Cc2cc(Br)c(O)c(Br)c2)C2CCCCC2)cc1Br : > 100 µM
30. Oc1c2c(c(O)c3ccccc13)=N[C@@H](c1ccccc1)[C@H](c1ccccc1)N=2 : > 100 µM
31. O=C(NN1C(=O)CSC1c1ccc(Cl)c(Cl)c1)c1ccncc1 (stereo not given) : > 100 µM
32. Oc1ccc(Cc2ccccc2)c2cccnc12 : 9.34 µM
33. CCCSc1cc(Cl)nc(N)n1 : > 100 µM
34. COc1ccc(-c2cc(-c3cc(Cl)ccc3Cl)nc3nc(=S)[nH]c(N)c23)cc1 : > 100 µM
35. Brc1ccc2c(c1)-c1nc3c(cc1CC2)CCc1ccc(Br)cc1-3 : > 100 µM
